assay: Pharmacokinetic study of salt forms in rat plasma and brain after oral gavage; assay type: in vivo; settings: rat; male rats, single 25 mg/kg free base by oral gavage, plasma
I'd be grateful if you could share measured AUC for these entries.
The answer is to be given in ng·h/mL; state only the numeric part.

Reported AUC, compound CC[C@H](C)[C@H](N)C(=O)NCCN1CCOCC1 (stereo in doubt) [Free base] : ____
321

Reported AUC, compound CCC(C)C(N)C(=O)NCCN1CCOCC1.Cc1ccc(S(=O)(=O)O)cc1.Cc1ccc(S(=O)(=O)O)cc1 (centres unmarked) [Ditosylate] : ____
295

---

Test: Pharmacokinetic study of salt forms in rat plasma and brain after oral gavage
Type: in vivo
Settings: rat; male rats, single 25 mg/kg free base by oral gavage, plasma
Procedure: The objective of this study was to provide preliminary pharmacokinetic information regarding the exposure of different salt forms of LM11A-31 in rat plasma and brain when dosed by oral gavage. Groups consisting of nine male rats received single doses of 25 mg/kg free base by oral gavage. […] The samples were analyzed by LC-MS/MS to determine the plasma and brain concentrations of the test article. […]
I'd be grateful if you could share measured AUC(0-inf) for these entries.
The answer is to be given in ng·h/mL; state only the numeric part.

Reported AUC(0-inf), compound CCC(C)C(N)C(=O)NCCN1CCOCC1.Cc1ccc(S(=O)(=O)O)cc1.Cc1ccc(S(=O)(=O)O)cc1 (centres unmarked) [Ditosylate] : ____
290

Reported AUC(0-inf), compound CC[C@H](C)[C@H](N)C(=O)NCCN1CCOCC1 (stereo in doubt) [Free base] : ____
316

---

Assay: Pharmacokinetic study of salt forms in rat plasma and brain after oral gavage
Assay type: in vivo
Conditions: rat; male rats, single 25 mg/kg free base by oral gavage, plasma; read-out: Tmax
Procedure: The objective of this study was to provide preliminary pharmacokinetic information regarding the exposure of different salt forms of LM11A-31 in rat plasma and brain when dosed by oral gavage. Groups consisting of nine male rats received single doses of 25 mg/kg free base by oral gavage. […] The samples were analyzed by LC-MS/MS to determine the plasma and brain concentrations of the test article. […]
value-kind: Tmax
Mention the unit after the number when you answer.

Reported Tmax, molecule CCC(C)C(N)C(=O)NCCN1CCOCC1.Cc1ccc(S(=O)(=O)O)cc1.Cc1ccc(S(=O)(=O)O)cc1 (centres unmarked) [Ditosylate] : ____
30 min

Reported Tmax, molecule CC[C@H](C)[C@H](N)C(=O)NCCN1CCOCC1 (stereo in doubt) [Free base] : ____
30 min

---

test: Solubility in water (incremental solvent addition, visual observation); settings: thermodynamic from solid
Counter-ions that a name gives are not always drawn.
I'd be grateful if you could share measured solubility for these entries.

Reported solubility, compound CCC(C)C(N)C(=O)NCCN1CCOCC1.CS(=O)(=O)O.CS(=O)(=O)O (stereo not drawn) [Dimesylate] : ____
≥ 28 mg/mL

Reported solubility, compound CC[C@H](C)[C@H](N)C(=O)NCCN1CCOCC1 (stereo in doubt) [Free base] : ____
> 30 mg/mL

Reported solubility, compound CCC(C)C(N)C(=O)NCCN1CCOCC1 (stereo not drawn) [di-HCl salt] : ____
> 30 mg/mL

Measured values drawn from patent US10532988B2 for this set.
